# Tested on: HOP-92 NSCLC
# Test: NCI tumour cell line growth inhibition, 48 h
Reported Property: TGI

# annotated cases, reported TGI shown
INSERT INTO measurements (compound, val) VALUES
  ('O=C(O)[C@@H]1OCCOCCO[C@@H](C(=O)O)[C@H](C(=O)O)OCCOCCO[C@H]1C(=O)O', '> 100 µM'),
  ('CNC(=O)N(CCC#N)CCN(C(=O)N(C)C)c1ccccc1', '> 100 µM');

The recorded TGI for entry `C=C1c2ccccc2C(=O)c2c1c1c(C(=O)OC)c(OC(=O)OCc3ccc([N+](=O)[O-])cc3)ccc1n2Cc1ccccc1` equals 7.59 µM

The recorded TGI for entry `Cc1c[nH]c(C(=O)O)c1-c1cccn1-c1ccc(Cl)cc1[N+](=O)[O-]` equals > 100 µM

The recorded TGI for entry COC(=O)C1CCC(=O)N1CN(C(C)=O)c1cc(OC)ccc1OC (centres undefined) equals > 100 µM

The recorded TGI for entry COc1ccc(C(C)c2cc(OC)c(OC)c(OC)c2)cc1 (centres undefined) equals > 50 µM

The recorded TGI for entry `CCC(=O)NI1OC(=O)c2ccccc21` equals > 100 µM

The recorded TGI for entry `O=C(O)C(O)(c1ccc(-c2ccccc2)cc1)c1ccc(-c2ccccc2)cc1` equals 41.4 µM

The recorded TGI for entry `C[P+](C)(C)C` equals > 100 µM

The recorded TGI for entry `O=C(O)c1nc2ccc(Cl)cc2[nH]c1=O` equals > 100 µM

Taken from PubChem BioAssay (NCI).
